# key: entry, value: remaining at 8 h
target_or_system: pepsin (Sus scrofa, UniProt P00791)
Sequence (P00791 60-385): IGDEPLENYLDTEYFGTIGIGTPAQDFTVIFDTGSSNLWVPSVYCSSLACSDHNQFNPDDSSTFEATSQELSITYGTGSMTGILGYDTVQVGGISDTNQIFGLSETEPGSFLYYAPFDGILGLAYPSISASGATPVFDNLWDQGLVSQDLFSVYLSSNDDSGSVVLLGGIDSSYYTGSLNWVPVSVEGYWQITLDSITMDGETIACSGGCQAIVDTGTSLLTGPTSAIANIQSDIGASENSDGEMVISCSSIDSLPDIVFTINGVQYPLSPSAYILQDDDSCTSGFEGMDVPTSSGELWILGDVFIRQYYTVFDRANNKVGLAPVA
procedure_details: in vitro
assay_context: simulated gastric fluid, pH 1.2
Starred links: 1 amine or outer side, 2 acyl side, 3 side chain; linkers in the order of their positions; H or OH if unused. Non-standard residues stand in square brackets, D forms with d. Residues, ends and D or L forms follow the SMILES beside them. X1 = CC(C)C[C@H](NC(=S)[C@H](Cc1ccc(O)cc1)N[*:1])C(=O)[*:2]; X6 = O=C([C@H](Cc1ccc(O)cc1)NC(=S)[C@H]1CCCN1[*:1])[*:2]; X3 = CC(C)C[C@H](N[*:1])C(=S)N[C@H](CC(C)C)C(=O)[*:2]; X4 = CC(C)C[C@H](N[*:1])C(=S)N1CCC[C@@H]1C(=O)[*:2]; NMeL = CN[C@@H](CC(C)C)C(=O)O
Express it in %; write the number only.

- CC(C)C[C@@H]1NC(=O)[C@H](Cc2ccc(O)cc2)NC(=S)[C@H]2CCCN2C(=O)[C@H](CC(C)C)NC(=O)[C@H](CC(C)C)NC(=O)[C@@H](CC(C)C)NC1=O [10d] (cyclo(LL[X6]L[dL])): 16
- CC(C)C[C@@H]1NC(=O)[C@H](Cc2ccc(O)cc2)NC(=O)[C@H]2CCCN2C(=O)[C@H](CC(C)C)N(C)C(=O)[C@H](CC(C)C)NC(=O)[C@@H](CC(C)C)NC1=O [10i] (cyclo(L[NMeL][dP]YL[dL])): 2.5
- CC(C)C[C@@H]1NC(=O)[C@@H](CC(C)C)NC(=S)[C@H](CC(C)C)NC(=O)[C@H](Cc2ccc(O)cc2)NC(=O)[C@H]2CCCN2C(=O)[C@H](CC(C)C)NC1=O [10f] (cyclo(LL[dP]Y[X3])): 24
- CC(C)C[C@@H]1NC(=O)[C@H](Cc2ccc(O)cc2)NC(=O)[C@H]2CCCN2C(=S)[C@H](CC(C)C)NC(=O)[C@H](CC(C)C)NC(=O)[C@@H](CC(C)C)NC1=O [10c] (cyclo(L[dL]L[X4]Y)): 12
- CC(C)C[C@@H]1NC(=O)[C@@H](CC(C)C)NC(=O)[C@H](CC(C)C)NC(=S)[C@H](Cc2ccc(O)cc2)NC(=O)[C@H]2CCCN2C(=O)[C@H](CC(C)C)NC1=O [10e] (cyclo(LL[dP][X1][dL])): 41

Next item in the queue.
Incoming: Return reported remaining at 8 h; argument: CC(C)C[C@@H]1NC(=O)[C@H](Cc2ccc(O)cc2)NC(=O)[C@H]2CCCN2C(=O)[C@H](CC(C)C)NC(=O)[C@H](CC(C)C)N(C)C(=O)[C@@H](CC(C)C)NC1=O [10h] (cyclo(L[dL][NMeL]L[dP]Y))
Outgoing: 8

====

procedure_details: in vitro
assay_context: human, microsomes
Starred links: 1 amine or outer side, 2 acyl side, 3 side chain; linkers in the order of their positions; H or OH if unused. Non-standard residues stand in square brackets, D forms with d. Residues, ends and D or L forms follow the SMILES beside them. X1 = CC(C)C[C@H](NC(=S)[C@H](Cc1ccc(O)cc1)N[*:1])C(=O)[*:2]; X5 = CC(C)C[C@H](NC(=S)[C@H](CC(C)C)N[*:1])C(=O)[*:2]; NMeL = CN[C@@H](CC(C)C)C(=O)O; dNMeL = CN[C@H](CC(C)C)C(=O)O
# key: entry, value: remaining at 0.75 h
Express it in %; write the number only.

Example entries begin here.
- CC(C)C[C@@H]1NC(=O)[C@@H](CC(C)C)NC(=O)[C@H](CC(C)C)NC(=S)[C@H](Cc2ccc(O)cc2)NC(=O)[C@H]2CCCN2C(=O)[C@H](CC(C)C)NC1=O [10e] (cyclo(LL[dP][X1][dL])): 37
- CC(C)C[C@@H]1NC(=O)[C@@H](CC(C)C)N(C)C(=O)[C@H](CC(C)C)NC(=O)[C@H](Cc2ccc(O)cc2)NC(=O)[C@H]2CCCN2C(=O)[C@H](CC(C)C)NC1=O [10g] (cyclo(LL[dP]YL[dNMeL])): 16
- CC(C)C[C@@H]1NC(=O)[C@H](Cc2ccc(O)cc2)NC(=O)[C@H]2CCCN2C(=O)[C@H](CC(C)C)NC(=O)[C@H](CC(C)C)N(C)C(=O)[C@@H](CC(C)C)NC1=O [10h] (cyclo(L[dL][NMeL]L[dP]Y)): 27

Incoming: Return reported remaining at 0.75 h; argument: CC(C)C[C@@H]1NC(=O)[C@H](Cc2ccc(O)cc2)NC(=O)[C@H]2CCCN2C(=O)[C@H](CC(C)C)NC(=S)[C@H](CC(C)C)NC(=O)[C@@H](CC(C)C)NC1=O [10b] (cyclo(L[dL][X5][dP]Y))
Outgoing: 28

Data origin, for the record: paper PMC10539501
